- tested_on: DNA dC->dU-editing enzyme APOBEC-3A (Homo sapiens, UniProt P31941)
- Sequence (P31941 whole entry): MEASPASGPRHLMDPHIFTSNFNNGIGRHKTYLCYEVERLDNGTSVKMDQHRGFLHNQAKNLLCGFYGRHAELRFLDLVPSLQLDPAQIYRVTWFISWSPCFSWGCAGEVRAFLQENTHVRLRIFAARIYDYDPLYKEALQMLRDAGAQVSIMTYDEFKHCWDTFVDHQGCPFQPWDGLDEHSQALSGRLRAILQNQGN
- assay_explanation: Dose Response confirmation of small molecule APOBEC3A DNA Deaminase Inhibitors via a fluorescence-based single-stranded DNA deaminase assay. [Related pubchem assays (depositor defined):AID493011, AID493024]
- Format: functional
Calls of active or inactive are those of the source.
Catalogue of IC50 values

Take a look at these entries with their results.
smiles_str | reported_result
COC(=O)C1=C(C)N(Cc2ccccc2)C(NCCCCO)=N[C@H]1c1ccccc1 | 2270 nM (active)
Cc1cc(/C=C2\SC(=O)N(C)C2=O)c(C)n1-c1ccc(S(N)(=O)=O)cc1 | 3120 nM (active)
N#C/C(=C/c1ccc(OCc2ccc(C(=O)O)cc2)cc1)C(=O)Nc1ccccc1 | 1750 nM (active)

Enquiry: Sample "CC1(C)CC(N2CCOCC2)=CC(=[N+]2CCOCC2)C1" — what was its IC50?
Return: 2590 nM (active)

Enquiry: Field entry: "CCN1CCN(c2ccc(S(=O)(=O)N3CCCCC3)cc2NC(=O)Cc2ccccc2)CC1"
Return: 3970 nM (active)

----------
Catalogue of IC50 values
- tested_on: DNA dC->dU-editing enzyme APOBEC-3G (Homo sapiens, UniProt Q9HC16)
- Sequence (Q9HC16 whole entry): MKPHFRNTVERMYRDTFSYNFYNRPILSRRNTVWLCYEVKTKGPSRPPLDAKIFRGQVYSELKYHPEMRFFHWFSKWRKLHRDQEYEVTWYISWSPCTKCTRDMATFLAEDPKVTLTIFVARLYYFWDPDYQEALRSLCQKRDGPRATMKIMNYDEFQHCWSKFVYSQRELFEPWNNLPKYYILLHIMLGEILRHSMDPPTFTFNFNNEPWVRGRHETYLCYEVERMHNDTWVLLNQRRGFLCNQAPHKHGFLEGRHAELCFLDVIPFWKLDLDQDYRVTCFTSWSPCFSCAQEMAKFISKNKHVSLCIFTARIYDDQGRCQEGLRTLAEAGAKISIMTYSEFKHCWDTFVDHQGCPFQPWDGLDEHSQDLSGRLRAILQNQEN
- Format: functional
The source made the active and inactive calls.

Take a look at these entries with their results.
smiles_str | IC50
Cc1cc(/C=C2\SC(=O)N(C)C2=O)c(C)n1-c1ccc(S(N)(=O)=O)cc1 | 4.58 µM (active)
CCN1CCN(c2ccc(S(=O)(=O)N3CCCCC3)cc2NC(=O)Cc2ccccc2)CC1 | 5.57 µM (active)
COC(=O)C1=C(C)N(Cc2ccccc2)C(NCCCCO)=N[C@H]1c1ccccc1 | 5.13 µM (active)

Enquiry: Sample "N#C/C(=C/c1ccc(OCc2ccc(C(=O)O)cc2)cc1)C(=O)Nc1ccccc1" — what was its IC50?
Return: 2.36 µM (active)

Enquiry: Field entry: "CC1(C)CC(N2CCOCC2)=CC(=[N+]2CCOCC2)C1"
Return: 2.26 µM (active)

----------
- assay_explanation: luciferase reporter signal suppression in cells – H4 neuroglioma cells, luminescence, dose response (AID 1990)
- Type: functional, cell-based
The source made the active and inactive calls.
Catalogue of EC50 values

compound | EC50
O=C1c2ccccc2C(=O)c2c1cccc2-n1nnc2ccccc21 | 16.3 µM (active)
CCOc1ccc(OCc2cccc(C(=O)N/N=C/c3cccnc3)c2)cc1 | 9.06 µM (active)
Cn1c(NNC(=O)c2ccccc2F)cc(=O)n(C)c1=O | > 120 µM (not active)

Enquiry: Sample Cc1cc([N+](=O)[O-])ccc1-c1ccc(C2Nc3ccccc3C(=O)N2O)o1 (centres undefined) — what was its EC50?
Return: 10.3 µM (active)

----------
- tested_on: Paired box protein Pax-8 (Homo sapiens)
- Sequence (Q06710 whole entry): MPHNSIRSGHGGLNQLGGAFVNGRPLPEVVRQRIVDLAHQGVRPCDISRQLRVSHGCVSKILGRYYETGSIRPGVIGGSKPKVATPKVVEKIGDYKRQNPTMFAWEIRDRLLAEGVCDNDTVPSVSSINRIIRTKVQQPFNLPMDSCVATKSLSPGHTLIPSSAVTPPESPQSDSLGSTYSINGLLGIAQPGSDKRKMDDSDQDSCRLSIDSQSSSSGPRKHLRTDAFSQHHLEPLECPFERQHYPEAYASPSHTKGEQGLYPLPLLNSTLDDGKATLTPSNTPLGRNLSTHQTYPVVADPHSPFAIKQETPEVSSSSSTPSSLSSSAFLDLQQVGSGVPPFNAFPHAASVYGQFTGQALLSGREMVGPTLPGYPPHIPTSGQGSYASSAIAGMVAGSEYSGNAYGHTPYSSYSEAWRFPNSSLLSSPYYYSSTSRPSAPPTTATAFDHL
- assay_explanation: PAX8 transcriptional activity inhibition in RMG-I – RMG-I cells, luciferase, cherry-pick, dose response (AID 687027);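 note: luciferase reporter driven by Pax8 target thyroperoxidase promoter measured by SteadyGlo luminescence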
- Format: functional, cell-based
The source made the active and inactive calls.
Catalogue of AC50 values

Take a look at these entries with their results.
compound | endpoint_label | reported_result
C[C@H]1CCCCO[C@@H](CN(C)Cc2ccc(Cl)c(Cl)c2)[C@@H](C)CN([C@@H](C)CO)C(=O)c2cc(NC(=O)Nc3ccc(C(F)(F)F)cc3)ccc2O1 | AC50 | 4.77 µM (active)
C[C@@H]1CCCCO[C@@H](CN(C)C(=O)c2ccccc2)[C@H](C)CN([C@H](C)CO)C(=O)c2cc(NC(=O)Nc3ccc(C(F)(F)F)cc3)ccc2O1 | AC50 | 3.53 µM (active)

Enquiry: Sample "Cc1ccc(-c2ccc([C@H]3[C@@H](CO)N4CCCCN(C(=O)Nc5cccc(F)c5)C[C@H]34)cc2)cc1" — what was its AC50?
Return: 21.7 µM (active)

Enquiry: Field entry: "CC1(C)CC(=O)C=C(C#CC2(O)CCCCC2)C1"
Return: 4.34 µM (active)

----------
Catalogue of AC50 values
- tested_on: DNA repair protein RAD52 homolog (Homo sapiens)
- Sequence (P43351 whole entry): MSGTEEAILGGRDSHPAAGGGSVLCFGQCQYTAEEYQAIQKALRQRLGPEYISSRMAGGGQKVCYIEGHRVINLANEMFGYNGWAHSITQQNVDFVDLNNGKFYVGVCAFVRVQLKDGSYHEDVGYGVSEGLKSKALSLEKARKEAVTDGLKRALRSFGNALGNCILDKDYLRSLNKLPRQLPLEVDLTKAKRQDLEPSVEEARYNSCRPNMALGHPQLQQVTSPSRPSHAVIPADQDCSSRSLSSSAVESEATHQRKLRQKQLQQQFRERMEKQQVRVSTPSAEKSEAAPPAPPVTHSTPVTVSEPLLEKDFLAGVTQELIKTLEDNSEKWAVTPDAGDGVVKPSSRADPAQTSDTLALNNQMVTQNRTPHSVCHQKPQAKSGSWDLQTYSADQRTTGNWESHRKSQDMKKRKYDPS
- Assay type: functional, biochemical
The source made the active and inactive calls.

Enquiry: Sample "COc1cccc2c3cccc(OC)c3c3[nH]cnc3c12" — what was its AC50?
Return: 0.513 µM (active)

Enquiry: Field entry: "CN(C)CCCNc1nc2cc(-c3ccccc3)sc2c(=O)n1C"
Return: 10.8 µM (active)

Enquiry: Field entry: "Cc1ccc2sc(N(CCCN(C)C)C(=O)CN3C(=O)c4ccccc4C3=O)nc2c1C"
Return: 13.8 µM (active)

Enquiry: Field entry: "CN1CCN(CCCNC(=O)c2ccc(/C=C3/Sc4ccccc4N(Cc4cccc(Cl)c4)C3=O)cc2)CC1"
Return: 14 µM (active)

Enquiry: Field entry: CN1CCN(CC(O)COc2ccc(C34CC5CC(CC(C5)C3)C4)cc2)CC1 (stereo unspecified)
Return: 10.5 µM (active)

Enquiry: Field entry: CN(C)CCCN=C(S)NCC(c1ccc(Cl)cc1Cl)c1c[nH]c2ccccc12 (stereo unspecified)
Return: 6.45 µM (active)

----------
- tested_on: Nucleotide-binding oligomerization domain-containing protein 2 (Homo sapiens)
- Sequence (Q9HC29 whole entry, the tested form may be a part): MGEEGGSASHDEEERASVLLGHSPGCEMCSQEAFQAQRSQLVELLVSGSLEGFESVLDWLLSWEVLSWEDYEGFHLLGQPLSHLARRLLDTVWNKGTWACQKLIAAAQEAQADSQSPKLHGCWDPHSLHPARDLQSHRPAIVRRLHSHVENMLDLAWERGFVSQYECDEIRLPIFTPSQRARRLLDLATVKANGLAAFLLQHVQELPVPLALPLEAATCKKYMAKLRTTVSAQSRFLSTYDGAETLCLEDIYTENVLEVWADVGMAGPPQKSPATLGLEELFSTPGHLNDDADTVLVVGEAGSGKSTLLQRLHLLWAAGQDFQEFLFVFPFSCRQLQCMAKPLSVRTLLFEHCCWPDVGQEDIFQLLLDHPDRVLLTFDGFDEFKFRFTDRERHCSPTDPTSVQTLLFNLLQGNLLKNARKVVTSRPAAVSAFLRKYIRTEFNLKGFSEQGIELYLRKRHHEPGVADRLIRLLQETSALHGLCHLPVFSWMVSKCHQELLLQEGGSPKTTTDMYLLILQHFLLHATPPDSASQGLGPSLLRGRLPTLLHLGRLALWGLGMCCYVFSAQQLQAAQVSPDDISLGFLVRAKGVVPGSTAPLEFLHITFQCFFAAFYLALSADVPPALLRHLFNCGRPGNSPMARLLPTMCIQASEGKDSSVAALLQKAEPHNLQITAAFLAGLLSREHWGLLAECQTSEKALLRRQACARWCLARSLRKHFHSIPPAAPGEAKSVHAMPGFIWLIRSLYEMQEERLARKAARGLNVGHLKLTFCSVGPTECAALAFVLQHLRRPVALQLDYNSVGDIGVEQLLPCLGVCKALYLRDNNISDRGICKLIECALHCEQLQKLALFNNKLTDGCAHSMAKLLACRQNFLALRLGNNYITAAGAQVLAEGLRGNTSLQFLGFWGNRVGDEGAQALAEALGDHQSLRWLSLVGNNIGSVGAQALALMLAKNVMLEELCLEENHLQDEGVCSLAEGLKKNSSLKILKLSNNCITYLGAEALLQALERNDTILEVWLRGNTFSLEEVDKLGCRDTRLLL
- assay_explanation: inhibition of NOD2-driven NF-kB reporter – cell-based, luminescence, uHTS, HEK293 (AID 1566)
- Type: functional
Activity calls are given as the source filed them.
The reply should name one outcome from class 1 (active), class 0 (inactive)

Sample answers from the record:
compound | tested_on | assigned_category
Cc1cc(NC(=O)c2ccc(C)s2)n(-c2nc3ccccc3[nH]2)n1 | Nucleotide-binding oligomerization domain-containing protein 2 (Homo sapiens) | class 0
Cc1ccc(Nc2c([N+](=O)[O-])nn(-c3ccc4c(c3)OCCO4)[n+]2[O-])cc1F | Nucleotide-binding oligomerization domain-containing protein 2 (Homo sapiens) | class 0
CCOC(=O)C1CCN(S(=O)(=O)c2ccc3c(c2)N(C(C)=O)CC(C)S3)CC1 (stereo not given) | Nucleotide-binding oligomerization domain-containing protein 2 (Homo sapiens) | class 0

Enquiry: Dear all, I need the recorded test outcome for "CC(=O)c1cccc(NS(=O)(=O)c2ccc(NC(=O)N3CCCCC3)cc2)c1" , thank you.
Return: class 1

Enquiry: Field entry: "Cc1cccc(N2CCN(C(=O)CCCCCn3c(=S)[nH]c4ccc(N5CCOCC5)cc4c3=O)CC2)c1C"
Return: class 1

----------
- tested_on: Heat shock factor protein 1 (Mus musculus, UniProt P38532)
- Sequence (P38532 whole entry): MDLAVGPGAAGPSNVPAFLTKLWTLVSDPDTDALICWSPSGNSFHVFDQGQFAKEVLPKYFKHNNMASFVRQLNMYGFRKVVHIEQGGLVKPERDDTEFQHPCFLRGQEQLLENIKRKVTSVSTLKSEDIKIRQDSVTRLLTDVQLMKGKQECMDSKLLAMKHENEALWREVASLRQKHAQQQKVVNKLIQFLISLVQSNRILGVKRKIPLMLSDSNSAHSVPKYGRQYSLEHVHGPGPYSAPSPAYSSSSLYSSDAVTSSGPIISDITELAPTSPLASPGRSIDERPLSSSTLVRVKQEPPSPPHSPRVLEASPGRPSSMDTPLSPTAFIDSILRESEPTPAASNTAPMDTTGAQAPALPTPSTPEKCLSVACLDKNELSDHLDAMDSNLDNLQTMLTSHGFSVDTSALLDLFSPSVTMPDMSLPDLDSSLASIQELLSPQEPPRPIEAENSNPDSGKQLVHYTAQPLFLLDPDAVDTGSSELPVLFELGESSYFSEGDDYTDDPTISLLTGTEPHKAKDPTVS
- assay_explanation: enhancement of HSF1-driven luciferase signal – cell-based, NIH3T3, luminescence, dose retest, confirmation (AID 435004);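 note: stress induced by proteasome inhibitor MG132 added 30 min after compound; luciferase reporter driven by HSF1 response element in NIH3T3 cells; actives raise luminescence as potentiators of the MG132 stress response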
- Assay type: functional
Calls of active or inactive are those of the source.
The reply should name one outcome from active, inactive

Sample answers from the record:
molecule | assigned_category
Cc1cccc(-c2cc(C(=O)Nc3ccncc3)c3ccccc3n2)c1 | active
CC(C)NC(=O)NC(=O)COc1ccc(Br)cc1Br | inactive
COc1cc2nc(S)nc(NCc3ccc(Cl)cc3)c2cc1OC | inactive
CCn1c(SCCOc2ccc(Cl)cc2)nnc1-c1cccs1 | inactive
Cc1ccc(NC(=O)N2CCCC2C(=O)Nc2c(C)cc(C)cc2C)cc1 (configuration not stated) | inactive
Cc1cc(C)nc(S/C=C/C(=O)c2ccccc2F)n1 | active

Enquiry: Dear all, I need the recorded test outcome for "O=Nc1c(-c2ccccc2)[nH]n(-c2ccccc2)c1=O" , thank you.
Return: active

Enquiry: Field entry: "Oc1ccc(-c2cnc(-c3ccc(O)cc3)nc2)cc1"
Return: active

Enquiry: Field entry: "COc1ccc(NC(=O)CSc2nnc(Cn3cnc([N+](=O)[O-])n3)n2C)cc1"
Return: inactive

Enquiry: Field entry: "O=C(NCc1nnc(SCc2ccccc2)n1-c1ccccc1)C12CC3CC(CC(C3)C1)C2"
Return: inactive

Enquiry: Field entry: "COc1cccc(CNc2ccc(Br)cn2)c1O"
Return: active

Enquiry: Field entry: "Nn1cnnc1N/N=C/c1cc([N+](=O)[O-])c(Cl)cc1Cl"
Return: inactive

----------
- tested_on: Protein skinhead-1 (Caenorhabditis elegans, UniProt P34707)
- Sequence (P34707 whole entry): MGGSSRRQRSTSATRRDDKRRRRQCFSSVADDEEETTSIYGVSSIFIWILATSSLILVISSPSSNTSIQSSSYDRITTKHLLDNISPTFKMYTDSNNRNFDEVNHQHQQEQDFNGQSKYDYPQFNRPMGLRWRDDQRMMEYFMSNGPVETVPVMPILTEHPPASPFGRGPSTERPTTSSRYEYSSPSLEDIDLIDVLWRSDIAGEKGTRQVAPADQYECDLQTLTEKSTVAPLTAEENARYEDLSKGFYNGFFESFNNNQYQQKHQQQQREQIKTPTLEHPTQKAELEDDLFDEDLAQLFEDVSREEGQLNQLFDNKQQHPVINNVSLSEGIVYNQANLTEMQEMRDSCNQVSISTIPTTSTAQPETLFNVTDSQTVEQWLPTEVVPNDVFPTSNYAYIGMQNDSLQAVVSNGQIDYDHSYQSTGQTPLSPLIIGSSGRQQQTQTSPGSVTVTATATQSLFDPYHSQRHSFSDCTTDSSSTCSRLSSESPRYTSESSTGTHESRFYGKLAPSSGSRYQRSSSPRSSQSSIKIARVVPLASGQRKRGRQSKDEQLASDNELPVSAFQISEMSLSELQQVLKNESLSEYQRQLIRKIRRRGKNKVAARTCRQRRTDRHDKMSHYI
- Format: functional
Activity calls are given as the source filed them.
The reply should name one outcome from active, inactive

Sample answers from the record:
smiles_str | tested_on | assigned_category
Cc1ccc(N/C=C/C(=O)c2cccs2)cc1C | Protein skinhead-1 (Caenorhabditis elegans, UniProt P34707) | inactive
CCN(CC)c1ccc(/C=C2/C(=O)c3ccc(C(=O)O)cc3C2=O)cc1 | Protein skinhead-1 (Caenorhabditis elegans, UniProt P34707) | active

Let's switch to this compound now.
Enquiry: Dear all, I need the recorded test outcome for "CCCS(=O)(=O)N1CCC(C(=O)NCc2cccnc2)CC1" , thank you.
Return: inactive

----------
- Test system: H9c2;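 note: cell death induced by hydrogen peroxide oxidative stress; compound pretreatment for 60 min then peroxide exposure for 2 h; potency is for protecting the cells against peroxide damage rather than for killing them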;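 note: confirmatory concentration-response retest of ultra-high-throughput screening hits for modulation of myocardial damage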
- assay_explanation: cells
- Type: functional, cell-based
- study_conditions: Rattus norvegicus, H9c2, Myocardium
Active and inactive are the calls of the source.
The reply should name one outcome from active, inactive

compound | tested_on | assigned_category
COc1cccc(NC(=O)COc2cccc3c2CCNC3=O)c1 | H9c2 | inactive
COc1ccc(-c2cc(-c3nnc(COC(=O)C4CC4C)o3)c3ccccc3n2)cc1OC (stereo not given) | H9c2 | active
CCOC(=O)Cc1csc(SCc2cc(=O)oc3cc(O)ccc23)n1 | H9c2 | inactive
CN(CC(=O)Nc1ccccc1Cl)C(=O)CCc1nc(O)c2ccccc2n1 | H9c2 | active

Enquiry: Dear all, I need the recorded test outcome for "CC(C)c1cc(N2CCN(C(=O)c3ccco3)CC2)n2c(nc3ccccc32)c1C#N" , thank you.
Return: active
